# assay-procedure: Brain penetrance: plasma and CSF pharmacokinetics after single oral doses in dogs
# Assay type: in vivo, dog
# run-conditions: dog, CSF, single oral dose 240 mg/kg
readout-kind: Cmax (µg/mL)

compound: OC1C(O)C(O)C(O)C(O)C1O (stereo not shown)
readout-kind: Cmax
endpoint-unit: µg/mL
value: 67.4

* * *

# assay-procedure: in vivo
# run-conditions: rat, po, 50 mg/kg
readout-kind: CL/F at 28 days (mL/min/kg)

molecule: OC1C(O)C(O)C(O)C(O)C1O (stereo not shown)
value: 5.95

* * *

# assay-procedure: clinical
# run-conditions: male, human, in vivo, po, 5000 mg
readout-kind: Tmax (h)

compound: OC1C(O)C(O)C(O)C(O)C1O (stereo not shown) [AZD-103, scyllo-inositol]
readout-kind: Tmax
value: 2.42
